Target: Metabotropic glutamate receptor 8 (Rattus norvegicus)
Assay: mGluR8 Gi/Go-coupled signaling modulation – cell-based, rat, thallium flux, HTS, primary screen (AID 488969)
Details: HEK293 rat mGluR8, GIRK thallium flux, FluoZin2; at 10 µM; stronger effect = higher value; submaximal glutamate (EC20) added with thallium
In all, about 110,000 compounds were measured (“z-score”: median about -0.1, highest 2% from about 2 on). The full list was thinned out, with the highest values kept by preference.
Assign classes using reported z-score values and the ranges zone 1 = under -0.2, zone 2 = from -0.2 up to 0.1, zone 3 = 0.1 and over, please.

Here's what some known entries look like.
COMPOUND	STUDY TARGET	ANSWER LABEL
Nc1nnc(Cc2ccccc2)s1	Metabotropic glutamate receptor 8 (Rattus norvegicus)	zone 2
Cc1ccc(C(=O)N/C(=C\c2ccccc2)C(=O)OCc2ccccc2)cc1	Metabotropic glutamate receptor 8 (Rattus norvegicus)	zone 1
Cc1ccc2c(c1)C(=O)CCN2	Metabotropic glutamate receptor 8 (Rattus norvegicus)	zone 3
CC(C)(C)Cc1nc(-c2ccc(Cl)cc2)no1	Metabotropic glutamate receptor 8 (Rattus norvegicus)	zone 3
CCCCc1ccc(-c2csc(/C(C#N)=C/c3ccco3)n2)cc1	Metabotropic glutamate receptor 8 (Rattus norvegicus)	zone 1
CC(NC(=O)C1CCCCC1)C(=O)NC1=NCCS1 (centres undefined)	Metabotropic glutamate receptor 8 (Rattus norvegicus)	zone 2
OC(CNCc1ccco1)Cn1c2ccc(Br)cc2c2cc(Br)ccc21 (centres undefined)	Metabotropic glutamate receptor 8 (Rattus norvegicus)	zone 3
CCOCCCn1c(=N)c(C(N)=S)cc2c(=O)n3cccc(C)c3nc21	Metabotropic glutamate receptor 8 (Rattus norvegicus)	zone 3

stdin: Classify this compound: COc1cccc(NC(=O)COC(=O)c2c3c(nc4ccccc24)CCC(C)C3)c1 (centres undefined)
stdout: zone 1

stdin: Kindly identify the class of O=C(c1ccc(Cl)c(S(=O)(=O)N2CCc3ccccc3C2)c1)N1CCN(c2ccccc2)CC1 .
stdout: zone 2

stdin: Input Cc1cccc(NC(=S)NCCN2CCOCC2)c1C ; output its category
stdout: zone 1

stdin: GET /class?item= CC(=O)c1cnc(Nc2ccccc2)s1
stdout: zone 3

stdin: Place this compound in its band: COc1cccc(N2CCN(CC(=O)C34CC5CC(CC(C5)C3)C4)CC2)c1
stdout: zone 2

stdin: Hello team, could you let me know which band the following compound falls into: OC(CNCC1CCCO1)Cn1c2ccc(Br)cc2c2cc(Br)ccc21 (centres undefined)
stdout: zone 3

stdin: In plain terms, what class is O=C(CCNC(=O)c1ccccc1Cl)NCC12CC3CC(CC(C3)C1)C2 ?
stdout: zone 2

stdin: Where would Cc1ccc(S(=O)(=O)N2CCN(c3ccc(C(F)(F)F)cc3[N+](=O)[O-])CC2)cc1 land among the classes by reported z-score?
stdout: zone 2

stdin: Category of Cc1ccc(C2CC2c2n[nH]c(=S)n2-c2cccc(Cl)c2)cc1 (centres undefined) :
stdout: zone 3

###

Collected z-score values appear next to each entry.
Biological target: Metabotropic glutamate receptor 8 (Rattus norvegicus) (UniProt P70579)
Sequence (P70579 whole entry, looked up): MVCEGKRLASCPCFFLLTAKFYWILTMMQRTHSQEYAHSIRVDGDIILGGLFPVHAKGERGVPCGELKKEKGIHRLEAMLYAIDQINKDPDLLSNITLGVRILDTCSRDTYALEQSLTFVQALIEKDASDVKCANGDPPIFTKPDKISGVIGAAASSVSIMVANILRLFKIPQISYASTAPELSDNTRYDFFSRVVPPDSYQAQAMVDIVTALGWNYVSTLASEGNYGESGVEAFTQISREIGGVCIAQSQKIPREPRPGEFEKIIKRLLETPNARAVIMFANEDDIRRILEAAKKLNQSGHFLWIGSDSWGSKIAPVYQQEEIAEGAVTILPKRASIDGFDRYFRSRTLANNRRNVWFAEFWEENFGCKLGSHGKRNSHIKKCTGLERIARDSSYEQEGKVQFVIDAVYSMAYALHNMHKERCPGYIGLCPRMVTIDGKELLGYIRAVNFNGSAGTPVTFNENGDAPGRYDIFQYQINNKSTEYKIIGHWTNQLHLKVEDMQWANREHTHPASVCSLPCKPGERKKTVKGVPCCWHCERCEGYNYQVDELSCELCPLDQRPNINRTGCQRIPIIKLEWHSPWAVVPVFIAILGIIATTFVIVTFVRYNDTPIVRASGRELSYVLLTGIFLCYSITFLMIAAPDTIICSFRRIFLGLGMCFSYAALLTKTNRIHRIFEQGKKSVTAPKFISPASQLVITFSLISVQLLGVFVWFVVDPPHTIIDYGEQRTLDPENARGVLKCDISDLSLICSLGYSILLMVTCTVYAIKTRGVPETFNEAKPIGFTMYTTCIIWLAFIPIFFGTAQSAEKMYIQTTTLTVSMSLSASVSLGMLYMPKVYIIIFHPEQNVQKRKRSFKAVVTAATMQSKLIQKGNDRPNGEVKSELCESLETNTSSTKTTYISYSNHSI
Assay: mGluR8 Gi/Go-coupled signaling modulation – cell-based, rat, thallium flux, HTS, primary screen (AID 488969)
Conditions: HEK293 rat mGluR8, GIRK thallium flux, FluoZin2; at 10 µM; stronger effect = higher value; submaximal glutamate (EC20) added with thallium
The full ranking holds about 110,000 compounds; the median of “z-score” is about -0.1, and the highest 2% start at about 2. The sample as a whole holds a higher share of the highest values than the screen did.

Completed entries (count: 4):
COMPOUND	RESULT
Cc1ccc(CNC(=O)c2ccc3c(=O)n(CCCN4CCCC4=O)c(=S)[nH]c3c2)cc1	-0.167
Brc1ccc(-c2cn3ccccc3n2)s1	-0.391
CCOC(=O)c1c(NC(=O)C2CCCO2)sc(C(N)=O)c1C (configuration not stated)	-0.0328
CCCC1S/C(=N/N=C/c2ccc(C)cc2)N(Cc2ccc(OC)cc2)C1=O (configuration not stated)	0.151

stdin: Returns the measured z-score for the input compound. Input: CCOc1ccc(/C=N/NC(=O)c2ccccc2NC(=O)c2ccc(OC)cc2)cc1
stdout: -0.0531

stdin: So what does the record say about z-score for O=C(NCCN1CCOCC1)c1cc(Sc2ccccc2Cl)nc2ccccc12 ?
stdout: -1.39

stdin: Give its z-score value. Item: COc1ccc(N(C(=O)Cn2nnc(-c3ccc(Cl)cc3)n2)C(C(=O)NCC2CCCO2)c2ccc(C)cc2)cc1 (configuration not stated)
stdout: -0.126

###

Biological target: Metabotropic glutamate receptor 8 (Rattus norvegicus)
Assay: mGluR8 Gi/Go-coupled signaling modulation – cell-based, rat, thallium flux, HTS, primary screen (AID 488969)
Settings: HEK293 rat mGluR8, GIRK thallium flux, FluoZin2; at 10 µM; stronger effect = higher value; submaximal glutamate (EC20) added with thallium
Over roughly 110,000 compounds, “z-score” has its median near -0.1; the highest 2% begin near 2. Shown is part of a subset that was picked to be rich in the highest values.
OBSERVATION TYPE: z-score
Form field (numeric): enter value without unit.

The cases that follow already have their z-score on record.
COMPOUND	OBSERVATION TYPE	NUMBER
COc1ccc(NC(=O)Nc2nnc(-c3ccccc3SCc3ccccc3)s2)cc1	z-score	-0.158
O=C1NC(=S)/C(=C\c2ccc(-c3ccccc3Cl)o2)S1	z-score	3.83
CCOc1nc(N(C)C)nc(-n2nnc(C(C)=O)c2C)n1	z-score	-0.22
Cc1noc(/C=C/N(C)C)c1S(=O)(=O)NC1CCCCC1	z-score	-0.658
CC(=O)c1cnn(-c2cc(Oc3ccc(F)cc3)ncn2)c1C	z-score	0.354
CCC(NC(=O)Cn1cnc2c(=O)n(C)c(=O)n(C)c21)c1ccccc1 (stereo not given)	z-score	0.0869
CCOC(=O)c1c(NC(=O)C2CCCN(S(=O)(=O)c3ccccc3)C2)sc2c1CCCC2 (stereo not given)	z-score	0.269
CC(C)c1cc(-c2n[nH]c(=S)n2Cc2ccccc2)cs1	z-score	1.35

stdin: Consider the compound shown here: COc1ccc(Cl)cc1C(=O)NNC(=S)NC(=O)c1cc(-c2ccccc2)nc2ccccc12 What is its recorded z-score?
stdout: 1.06

stdin: // query z-score value for entry COC(=O)c1c(NS(=O)(=O)c2ccc(C)cc2)sc2c1CCC(C)C2 (stereo not given)
stdout: 7.28

stdin: Suppose we examine the compound NC(=O)c1cccnc1Nc1ccccc1Cl ; what z-score value has been reported?
stdout: -0.423

stdin: Param item = CC12CN(C(=O)c3ccccc3)C3(C#N)CC1CCC23C (stereo not given) ; retrieve measured z-score.
stdout: 0.729

stdin: Can you look up the measured z-score of c1csc(-c2nnc(NC3CCCCC3)c3ccccc23)c1 for me?
stdout: -1.27

stdin: Returns the measured z-score for the input compound. Input: CCC(CC)COC(=O)C(C#N)c1nc2ccccc2nc1N1CCN(CC)CC1 (stereo not given)
stdout: 2.72

stdin: Requested field: z-score. Item: CCOC(=O)C1CCCN(C(=S)Nc2cccc(Cl)c2C)C1 (stereo not given)
stdout: -0.429

stdin: Quick one: z-score for Cc1noc(/C=C/N(C)C)c1S(=O)(=O)N(C)CC(=O)NC1CCCCC1 ?
stdout: 2.18

stdin: Would you mind telling me what z-score value was observed for COCC(=O)Nc1sc2c(c1C(=O)OC)CCC(C)C2 (stereo not given) ?
stdout: -0.444

stdin: Which measured z-score value corresponds to O=C(CC1Oc2ccccc2NC1=O)NC1CC1 (stereo not given) ?
stdout: 2.19

stdin: Item under review: CC(=O)c1cnn(-c2cc(Oc3cccc(C)c3)ncn2)c1C . Reported z-score?
stdout: 2.24

stdin: // query z-score value for entry CC(C)Cn1c(SCC(=O)N2CCCCC2)nc2ccccc2c1=O
stdout: -0.537

###

Biological target: Metabotropic glutamate receptor 8 (Rattus norvegicus) (UniProt P70579)
Assay: mGluR8 Gi/Go-coupled signaling modulation – cell-based, rat, thallium flux, HTS, primary screen (AID 488969)
Details: HEK293 rat mGluR8, GIRK thallium flux, FluoZin2; at 10 µM; stronger effect = higher value; submaximal glutamate (EC20) added with thallium
In all, about 110,000 compounds were measured (“z-score”: median about -0.1, highest 2% from about 2 on). The list comes from a sample in which the highest values are over-represented; it also holds close analogues and randomly drawn compounds.
Below: a set of entries, each annotated with reported z-score.
Please state the value as a number alone, without comment.

O=C(COc1cccc2ccccc12)NNC(=O)CSCCO -0.199
COc1ccc(NC(=S)Nc2cccc3cnccc23)cc1 -0.198

Let us examine a further case.
stdin: Item under review: O=C1c2cccc3cccc(c23)C(=O)N1CCN1CCN(C(=S)Nc2ccc(F)cc2)CC1 . Reported z-score?
stdout: -0.203

###

Molecular target: Metabotropic glutamate receptor 8 (Rattus norvegicus)
Test: mGluR8 Gi/Go-coupled signaling modulation – cell-based, rat, thallium flux, HTS, primary screen (AID 488969)
Conditions: HEK293 rat mGluR8, GIRK (G protein-gated inwardly rectifying potassium channel) thallium flux, FluoZin2; at 10 µM; stronger effect = higher value; submaximal glutamate (EC20) added with thallium
Whole data set: some 110,000 compounds, median “z-score” near -0.1, cut for the highest 2% near 2. Many of the other results were omitted from the sample, so the highest values are more common in it than they were.
Listed here: items and their measured z-score.
The reply should be a number, written without any unit.

The following compounds have reported results that may help.
COMPOUND	z-score
O=C(CCCN1C(=O)C2CCCCN2C1=O)N1CCN(c2ccc([N+](=O)[O-])cc2)CC1 (stereo not drawn)	0.169
Cc1ccc2nsnc2c1S(=O)(=O)Nc1cccc2nsnc12	14.7

Read the next record carefully.
stdin: # value lookup — system Metabotropic glutamate receptor 8 (Rattus norvegicus), readout z-score, item O=C1CS/C(=N\C(=O)N2c3ccccc3Sc3ccccc32)N1
stdout: 7.66
